- System: Proteus mirabilis
- protocol.notes: MIC against Gram-negative bacteria: Proteus mirabilis
- Assay type: cell-based
- assay.conditions: P. mirabilis; 10 h cultivation at 37° C.
Listing of entries alongside the reported MIC.
measure.name: MIC (µg/mL)

>>> measured_number("PRT1023 (PINYCETGLHNCDIPQRAQCIYTGGSSYTCSCLPGFSGDGQACQ; listed as Homo sapiens)")
12.5
>>> measured_number("PRT921 (NIDDCASAACFHGATCHDRVASFYCECPHGRTGLLCH; listed as Homo sapiens)")
12.5
>>> measured_number("PRT999 (PEDNCTCHHGHCQRSSCVCDVGWTGPECE; listed as Homo sapiens)")
50
>>> measured_number("PRT987 (NVDDCPGHRCLNGGTCVDGVNTYNCQCPPEWTGQFCT; listed as Homo sapiens)")
50
>>> measured_number("PRT997 (EVDECLSDPCPVGASCLDLPGAFFCLCPSGFTGQLCE; listed as Homo sapiens)")
25
>>> measured_number("PRT1026 (NKETCEHNHRQCSRHAFCTDYATGFCCHCQSKFYGNGKHCL; listed as Homo sapiens)")
12.5
>>> measured_number("PRT910 (EIDECLSHPCQNGGTCLDLPNTYKCSCPRGTQGVHCE; listed as Homo sapiens)")
25
>>> measured_number("PRT943 (PNVSCDIAASRRGVLVEHLCQHSGVCINAGNTHYCQCPLGYTGSYCE; listed as Homo sapiens)")
12.5
>>> measured_number("PRT938 (DIDDCLANPCQNGGSCMDGVNTFSCLCLPGFTGDKCQ; listed as Homo sapiens)")
12.5
>>> measured_number("PRT957 (APPCLDGSPCANGGRCTQLPSREAACLCPPGWVGERCQ; listed as Homo sapiens)")
25
